- assayed.system: Human CDK12 wt/CycK (Homo sapiens (Human), UniProt Q9NYV4)
- Sequence (Q9NYV4 whole entry): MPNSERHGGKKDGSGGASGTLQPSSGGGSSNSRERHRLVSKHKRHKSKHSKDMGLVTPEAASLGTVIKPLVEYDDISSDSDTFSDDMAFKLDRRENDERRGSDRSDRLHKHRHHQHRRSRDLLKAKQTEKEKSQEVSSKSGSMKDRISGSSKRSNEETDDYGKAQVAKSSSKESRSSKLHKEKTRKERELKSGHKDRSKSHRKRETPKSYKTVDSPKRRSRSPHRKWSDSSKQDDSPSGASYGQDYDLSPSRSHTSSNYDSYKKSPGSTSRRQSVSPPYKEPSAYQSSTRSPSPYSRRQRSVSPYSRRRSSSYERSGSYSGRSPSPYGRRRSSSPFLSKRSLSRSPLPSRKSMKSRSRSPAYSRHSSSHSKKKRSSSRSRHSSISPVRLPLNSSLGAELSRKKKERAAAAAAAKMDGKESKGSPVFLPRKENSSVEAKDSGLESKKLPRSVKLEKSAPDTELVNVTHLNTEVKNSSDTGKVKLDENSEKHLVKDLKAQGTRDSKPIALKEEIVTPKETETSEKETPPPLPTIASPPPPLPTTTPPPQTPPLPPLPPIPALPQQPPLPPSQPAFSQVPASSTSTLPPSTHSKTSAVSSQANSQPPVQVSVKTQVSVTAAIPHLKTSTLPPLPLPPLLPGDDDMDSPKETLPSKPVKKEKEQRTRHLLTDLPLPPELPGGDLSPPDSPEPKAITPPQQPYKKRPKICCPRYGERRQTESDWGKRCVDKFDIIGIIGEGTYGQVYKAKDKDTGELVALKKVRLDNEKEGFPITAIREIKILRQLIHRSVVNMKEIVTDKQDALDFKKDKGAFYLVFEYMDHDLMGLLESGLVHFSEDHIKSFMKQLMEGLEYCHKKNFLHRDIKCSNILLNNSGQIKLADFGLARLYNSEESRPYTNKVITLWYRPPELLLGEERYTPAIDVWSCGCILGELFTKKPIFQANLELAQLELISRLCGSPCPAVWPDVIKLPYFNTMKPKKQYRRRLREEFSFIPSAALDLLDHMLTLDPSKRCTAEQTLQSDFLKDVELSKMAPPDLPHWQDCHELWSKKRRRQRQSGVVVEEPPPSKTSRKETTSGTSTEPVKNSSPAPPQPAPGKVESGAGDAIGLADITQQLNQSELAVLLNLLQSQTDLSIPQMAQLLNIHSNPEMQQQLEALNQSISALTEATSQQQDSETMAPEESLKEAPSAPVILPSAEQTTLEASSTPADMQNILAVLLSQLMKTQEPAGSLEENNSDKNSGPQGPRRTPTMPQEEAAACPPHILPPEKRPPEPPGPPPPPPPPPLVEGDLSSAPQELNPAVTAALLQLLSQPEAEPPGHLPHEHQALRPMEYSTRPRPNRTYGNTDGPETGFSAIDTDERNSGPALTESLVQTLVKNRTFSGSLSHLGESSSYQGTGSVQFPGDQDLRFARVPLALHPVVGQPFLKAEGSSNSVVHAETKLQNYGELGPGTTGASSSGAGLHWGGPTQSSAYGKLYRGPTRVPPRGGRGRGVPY
- Sequence (O75909 whole entry partner): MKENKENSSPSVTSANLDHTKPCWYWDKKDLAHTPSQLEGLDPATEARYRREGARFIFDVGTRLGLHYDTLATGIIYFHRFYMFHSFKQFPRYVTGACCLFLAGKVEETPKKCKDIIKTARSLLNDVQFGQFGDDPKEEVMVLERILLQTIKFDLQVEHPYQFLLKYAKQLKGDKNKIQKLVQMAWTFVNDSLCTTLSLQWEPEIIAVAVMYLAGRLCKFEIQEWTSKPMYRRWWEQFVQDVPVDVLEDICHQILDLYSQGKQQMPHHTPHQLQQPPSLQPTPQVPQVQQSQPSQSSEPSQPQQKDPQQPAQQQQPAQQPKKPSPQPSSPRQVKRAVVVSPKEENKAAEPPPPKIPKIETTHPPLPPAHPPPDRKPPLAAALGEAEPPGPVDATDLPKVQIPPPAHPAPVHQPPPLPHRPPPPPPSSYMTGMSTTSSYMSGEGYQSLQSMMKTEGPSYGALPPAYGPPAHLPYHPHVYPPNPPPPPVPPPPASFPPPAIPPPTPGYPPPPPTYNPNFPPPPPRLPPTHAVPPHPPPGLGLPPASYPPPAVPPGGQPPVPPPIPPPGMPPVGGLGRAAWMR
- method: Radiometric protein kinase assay (33PanQinase Activity Assay), CDK12
- Type: biochemical
- test.settings: ratio of CDK7 IC50 to CDK12 IC50; greater than 1 indicates selectivity for CDK12
observable: CDK7/CDK12

Observe how each entry below is paired with its result.
>>> print(df.to_string())
                                   molecule  observable  recorded_measurement
0  c1ccc(-c2ccc(CNc3cc(N4CCNCC4)nc4c(C5CC5)cnn34)cc2)nc1 [PPA-038]  CDK7/CDK12                  26.3
1  CN(C[C@H]1CCNC[C@@H]1O)c1cc(NCc2ccc(-c3ccccn3)cc2)n2ncc(C3CC3)c2n1 [PPA-053]  CDK7/CDK12                   3.2

[P] O[C@H]1CNCC[C@@H]1CNc1cc(NCc2ccc(-c3ncccc3OC(F)(F)F)cc2)n2ncc(C3CC3)c2n1 [PPA-028]
[Q] Cc1cc(CNc2cc(NC[C@H]3CCNC[C@@H]3O)nc3c(C(C)C)cnn23)ccc1-c1ccccn1 [PPA-011]
[R] O[C@H]1CNCC[C@@H]1CNc1cc(NCc2ccc(-c3ncccn3)cc2)n2ncc(C3CC3)c2n1 [PPA-029]
[S] c1ccc(-c2ccc(CNc3cc(N[C@@H]4CCCNC4)nc4c(C5CC5)cnn34)cc2)nc1 [PPA-045]
Hi! Can you put these in order of CDK7/CDK12, lowest number first? The labels, placed in the requested order, form the answer.
Q, P, R, S

---

- assayed.system: Human CDK12 wt/CycK (Homo sapiens (Human), UniProt Q9NYV4)
- method: Radiometric protein kinase assay (33PanQinase Activity Assay), CDK12
- Format: biochemical
- test.settings: ATP 0.3 μM; read-out: CDK12 IC50
observable: IC50 (nM)

Observe how each entry below is paired with its result.
>>> df
                                   compound  unit_info  recorded_measurement
0  c1ccc(-c2ccc(CNc3cc(N[C@H]4CCNC4)nc4c(C5CC5)cnn34)cc2)nc1 [PPA-037]         nM                    28
1  c1ccc(-c2ccc(CNc3cc(O[C@@H]4CCNC4)nc4c(C5CC5)cnn34)cc2)nc1 [PPA-060]         nM                    77
2  O[C@H]1CNCC[C@@H]1CNc1cc(NCc2ccc(-c3ccccc3)cc2F)n2ncc(C3CC3)c2n1 [PPA-066]         nM                   174
3  O[C@H]1CNCC[C@@H]1CNc1cc(NCc2c(F)cc(-c3ccccc3)cc2F)n2ncc(C3CC3)c2n1 [PPA-076]         nM                  1490
4  CC(C)c1cnn2c(NCc3ccc(-c4ccncn4)cc3)cc(NC[C@H]3CCNC[C@@H]3O)nc12 [PPA-008]         nM                    52
5  O[C@H]1CNCC[C@@H]1CNc1cc(NCc2ccc(-c3nccs3)cc2)n2ncc(C3CC3)c2n1 [PPA-018]         nM                    39

[I] CC(C)c1cnn2c(NCc3ccc(-c4cccnc4)cc3)cc(NC[C@H]3CCNC[C@@H]3O)nc12 [PPA-003]
[II] COc1cc(-c2ccccn2)ccc1CNc1cc(NC[C@H]2CCNC[C@@H]2O)nc2c(C3CC3)cnn12 [PPA-030]
Returns: the label, I or II , whose recorded IC50 is the lower number. Give the label of your selection.
I

[I] O[C@H]1CNCC[C@@H]1CNc1cc(NCc2ccc(-c3nccs3)cc2F)n2ncc(C3CC3)c2n1 [PPA-054]
[II] N#Cc1cnn2c(NCc3ccc(-c4ccccn4)cc3)cc(N[C@H]3CCNC3)nc12 [PPA-086]
[III] c1ccc(-c2ccc(CNc3cc(C4CNC4)nc4c(C5CC5)cnn34)cc2)nc1 [PPA-058]
[IV] O=C1CC(CNc2cc(NCc3ccc(-c4ccccn4)cc3)n3ncc(C4CC4)c3n2)CCN1 (stereo not shown) [PPA-051]
Hi! Can you put these in order of IC50, lowest number first? The labels, placed in the requested order, form the answer.
II, I, III, IV

[P] N#Cc1cnn2c(NCc3ccc(-c4ccccc4)cc3F)cc(N[C@H]3CCNC3)nc12 [PPA-071]
[Q] Cc1nccn1-c1ccc(CNc2cc(NC[C@H]3CCNC[C@@H]3O)nc3c(C4CC4)cnn23)cc1 [PPA-023]
[R] c1ccc(-c2ccc(CNc3cc(N4CCOCC4)nc4c(C5CC5)cnn34)cc2)nc1 [PPA-033]
[S] c1ccc(-c2ccc(CNc3cc(N4CCNCC4)nc4c(C5CC5)cnn34)cc2)nc1 [PPA-038]
[T] c1ccc(-c2ccc(CNc3cc(N[C@@H]4CCCNC4)nc4c(C5CC5)cnn34)cc2)nc1 [PPA-045]
Hi! Can you put these in order of IC50, lowest number first? The labels, placed in the requested order, form the answer.
P, S, Q, T, R
